Tested on: E98
assay-details: Cell survival assay (crystal violet), continuous exposure
Type: cell-based, human
experimental-setup: Fig. 1A

smiles-code: CCc1cccc(CC)c1NC(=O)c1ccn2c1CCc1cnc(Nc3ccc(N4CCN(C)CC4)cc3OC)nc1-2
IC50: 23 nM

* * *

assay-details: Pharmacokinetics and brain penetration in Abcb1a/b;Abcg2-/- mice
Type: in vivo
experimental-setup: Abcb1a/b;Abcg2-/-, i.p. 10 mg/kg
assay-readout: Cmax

smiles-code: CCc1cccc(CC)c1NC(=O)c1ccn2c1CCc1cnc(Nc3ccc(N4CCN(C)CC4)cc3OC)nc1-2
assay-readout: Cmax
reported: 1700 nM

* * *

Tested on: GSC578
assay-details: Cell survival assay, glioma stem cell line
Format: cell-based, murine
experimental-setup: GSC578 (EgfrvIII;p15Ink4b/p16Ink4a-/-;Pten-/-), Fig. 1C
assay-readout: IC50 (nM)

compound: CCc1cccc(CC)c1NC(=O)c1ccn2c1CCc1cnc(Nc3ccc(N4CCN(C)CC4)cc3OC)nc1-2 [NTRC 0066-0]
reported: 46

* * *

assay-details: Pharmacokinetics and brain penetration in wild-type FVB mice
Type: in vivo
experimental-setup: WT, p.o. 10 mg/kg
assay-readout: Cmax (nM)

smiles-code: CCc1cccc(CC)c1NC(=O)c1ccn2c1CCc1cnc(Nc3ccc(N4CCN(C)CC4)cc3OC)nc1-2
unit-abbreviation: nM
reported: 180

* * *

System: GSC750
assay-details: Cell survival assay, glioma stem cell line
Assay type: cell-based, murine
experimental-setup: GSC750 (EgfrvIII;p15Ink4b/p16Ink4a-/-), Fig. 1C
Method: All cell lines were authenticated using STR profiling. […] Wells were pre-coated with poly-ornithine (15 µg/ml for 3 h at room temperature) and subsequently with laminin (7.5 µg/ml for 1 h at 37 °C) prior to seeding GSCs to make them adherent without inducing differentiation. […] Plates were imaged using a Chemi-Doc XRS+ (Bio-rad, Hercules, CA) and analyzed using the Colony Area plugin of ImageJ [24]. […]
pIC50: −log10 of the molar value.
assay-readout: pIC50

smiles-code: CCc1cccc(CC)c1NC(=O)c1ccn2c1CCc1cnc(Nc3ccc(N4CCN(C)CC4)cc3OC)nc1-2
assay-readout: pIC50
reported: 7.60
